Data provenance is patent US9181238B2.

Could you please report measured pIC50 for the items listed next?
system: A375-luc cells; assay: A375 Cellular Proliferation Assay; assay type: cell-based; settings: Homo sapiens, A-375, 48 h; A375-luc melanoma cells (B-Raf V600E), 2 days incubation, BrightGlo luminescence; read-out: A375 CP IC50
To interpret pIC50, take it as minus log10 of a concentration measured in moles per litre.

Request: pIC50, test system A375-luc cells, entry CCCS(=O)(=O)Nc1ncc(F)c(Nc2nccnc2-c2cc(NCCC(F)(F)F)ncn2)c1F [Compound 3]
7.68

Request: pIC50, test system A375-luc cells, entry CCCS(=O)(=O)Nc1ncc(F)c(Nc2nccnc2-c2cc(NCC)ncn2)c1Cl [Compound 6]
6.92

Request: pIC50, test system A375-luc cells, entry CCCS(=O)(=O)Nc1ncc(F)c(Nc2nccnc2-c2cc(NC)ncn2)c1F [Compound 5]
7.51

Request: pIC50, test system A375-luc cells, entry CCCS(=O)(=O)Nc1ncc(F)c(Nc2nccnc2-c2cc(NCCS(C)(=O)=O)ncn2)c1F [Compound 8]
6.72

Request: pIC50, test system A375-luc cells, entry CCCS(=O)(=O)Nc1ncc(F)c(-c2cc3cnc(NCCC#N)cc3n(C)c2=O)c1F [Compound 15]
7.92

Request: pIC50, test system A375-luc cells, entry CCCS(=O)(=O)Nc1ncc(F)c(Nc2nccnc2-c2cc(NCC)ncn2)c1F [Compound 1]
7.89

###

Could you please report measured pIC50 for the items listed next?
Test system: A375-luc cells
Experiment: A375 Cellular Proliferation Assay
Assay type: cell-based
Conditions: Homo sapiens, A-375, 48 h; A375-luc melanoma cells (B-Raf V600E), 2 days incubation, BrightGlo luminescence; read-out: A375 CP IC50
Procedure: A375 Cellular Proliferation Assay A375 is a melanoma cell line that harbors the B-Raf V600E mutation. A375-luc cells engineered to express luciferase are plated to 384-well white clear bottom plates as 1,500 cells/50 μl/well in DMEM containing 10% FBS. […] The cells are incubated for 2 days at […], then 25 μl of BrightGlo™ is added to each well and the plates are read by luminescence. […]
To interpret pIC50, take it as minus log10 of a concentration measured in moles per litre.

Item under review: CCCS(=O)(=O)Nc1ncc(F)c(Nc2nccnc2-c2cc(NCC(F)F)ncn2)c1F [Compound 4] . Reported pIC50?
7.92

Item under review: CCCS(=O)(=O)Nc1ncc(F)c(-c2cc3cnc(NC)nc3n(C)c2=O)c1F [Compound 10] . Reported pIC50?
7.25

Item under review: CCCS(=O)(=O)Nc1ncc(F)c(-c2cc3cnc(NCC)cc3n(C)c2=O)c1F [Compound 13] . Reported pIC50?
8.00

Item under review: CCCS(=O)(=O)Nc1ncc(F)c(Nc2nccnc2-c2cc(NCC(F)(F)F)ncn2)c1F [Compound 7] . Reported pIC50?
7.31

Item under review: CCCS(=O)(=O)Nc1nccc(-c2cc3cnc(NC)nc3n(C)c2=O)c1F [Compound 11] . Reported pIC50?
6.64

Item under review: CNc1ncc2cc(-c3c(F)cnc(NS(=O)(=O)CCC(F)(F)F)c3F)c(=O)n(C)c2n1 [Compound 14] . Reported pIC50?
6.89

Item under review: CCCS(=O)(=O)Nc1ncc(F)c(-c2cc3cnc(NC[C@H](C)NC(=O)OC)nc3n(C)c2=O)c1F [Compound 12] . Reported pIC50?
7.85

Item under review: CCCS(=O)(=O)Nc1ncc(F)c(Nc2nccnc2-c2cc(NCCC#N)ncn2)c1F [Compound 2] . Reported pIC50?
8.52
